Tested on: KM12 colon
Experiment: NCI-60 one-dose screen, 48 h
Settings: 10 µM unless noted
About 83,000 compounds went through this panel and 20% of them were active in at least one assay; those are over-represented in the sample as a whole. Calls of active or inactive are those of the source. Rule for the calls: active = growth percent below 10; inactive = the rest.
Labels: active, inactive

Cc1ccc(S(=O)(=O)N(c2ccc(Cl)cc2)c2ccc(Br)cc2C(=O)O)cc1 :: inactive
O=c1[nH]c(=S)[nH]c(=O)n1Cc1cccc2ccccc12 :: inactive
COc1ccc(OC)c(C2C(C#N)=C(N)Oc3cc(O)ccc32)c1 (centres undefined) :: inactive
CCOc1ccc(-c2cnnn2-c2nonc2-n2cccc2)cc1 :: active
COC(=O)CCC(=O)c1ccccc1 :: inactive
COc1ccc(C2SC(C)C(=O)N2CCc2cccs2)cc1OC (centres undefined) :: inactive
CCSc1nnc2c3cc(Br)ccc3n(C)c2n1 :: inactive
CCCCCCCCCCCCSC1=CC(=O)C=CC1=O :: inactive
COc1ccc(OC)c2ncccc12 :: inactive
CCCCC(O)Cn1ncc(C(=O)OCC)c1NC(=O)NCc1ccccc1C(F)(F)F (centres undefined) :: inactive
NC(=S)N/N=C1\c2ccccc2-c2c(F)c(F)c(F)c(F)c21 :: inactive
O=C(Nc1ccccc1)Oc1cccc2cccnc12 :: inactive
COc1ccc(CSc2nc3cc(OC)c(OC)cc3c(=O)n2-c2ccc(Cl)cc2)cc1 :: inactive
CC(=O)c1cc(C)c(OC(=O)c2ccccc2)c(C)c1 :: inactive
COc1ccc(Sc2ccc3[nH]c(=O)nc(N)c3c2)cc1 :: inactive
CC1=C(C/C=C(\C)CCC[C@H](C)CCC[C@H](C)CCCC(C)C)C(=O)c2ccccc2C1=O :: inactive
CC1SC(c2ccc(Cl)cc2)N(CCc2cccs2)C1=O (centres undefined) :: active
Oc1ccccc1/C=N/Nc1nc2ccccc2s1 :: inactive
FC(F)(F)c1cc(CNc2ncc(Br)c(Cl)n2)cc(C(F)(F)F)c1 :: inactive
Cc1cc(=O)oc2c1ccc1oc(C(=O)c3ccccc3)c(C)c12 :: inactive
OC[C@@H](O)[C@@H](O)CO :: inactive
c1ccc2c(c1)oc1cc3c(cc12)nnc1cccn13 :: inactive
NC1=NC(c2ccccc2OS(=O)(=O)c2ccc(Br)cc2)n2c(nc3ccccc32)N1 (centres undefined) :: inactive
Cc1ccc(C(=O)Nc2ccccc2N)cc1 :: inactive

* * *

Tested on: SN12C renal
Test: NCI-60 one-dose screen, 48 h (100 = growth as untreated, 0 = no growth, -100 = all killed)
Details: 10 µM unless noted
This is part of a sample that, as a whole, favours compounds with a hit. Of some 83,000 tested, about 20% had one in any assay.
Mark TRUE for reported growth of 80% or greater; mark FALSE for anything smaller.

O=C(O)c1ccccc1Oc1cc(-c2ccco2)nc(OCCBr)n1 :: TRUE
COc1ccccc1CNCCCCCCCCCCCCN1C(=O)c2ccc3c4c(ccc(c24)C1=O)C(=O)N(CCCCCCCCCCCCNCc1ccccc1OC)C3=O :: FALSE
CCC12CCC3c4ccc(O)cc4CCC3C1CC(O)C2O (stereo not given) :: TRUE
CC[Si](CC)(CC)OC1[C@@H](O[Si](CC)(CC)CC)[C@@H](CNC(=O)NC)O[C@H]1n1cnc2c(NC(=O)Nc3ccccc3)ncnc21 (stereo not given in full) :: TRUE
Cc1nn(CC(=O)O)c2c1C(=O)CC(C)(C)C2 :: TRUE
CCN(C(=O)c1ccc2c3c(cccc13)C=C2)c1ccccc1 :: TRUE
O=C(NCc1cccnc1)c1ccc([N+](=O)[O-])o1 :: FALSE
CN(C)C(=S)SCN1C(=O)c2ccc([N+](=O)[O-])cc2S1(=O)=O :: TRUE
Nc1cc2[nH]c(=O)c3ccccc3c2cc1Br :: FALSE
O=C(N/N=C/c1ccc(F)cc1)c1[nH]c2ccc(I)cc2c1-c1ccccc1 :: FALSE
